# Tested on: NCI-H460
# method summary: NCI tumour cell line growth inhibition, 48 h
Active and inactive are the calls of the source. Rule as the data show it: active = GI50 up to about 1.1 µM and inactive = higher.
Kindly supply the reported GI50 values for the records listed here.

CC(N)Cc1ccc(Cl)c(Cl)c1 (stereo not drawn): 30.1 µM (inactive)
NS(=O)(=O)c1ccc(/N=N/c2ccc(O)c(C(=O)O)c2)cc1 [SALAZOSULFAMIDE]: > 100 µM (inactive)
Cc1nc(Nc2ccccc2)sc1C(=O)CC(=O)C(=O)Nc1c(C(C)C)cccc1C(C)C: > 100 µM (inactive)
CC(=O)N1CC(C)(C)c2c1cc(C)c(O)c2C: > 100 µM (inactive)
Oc1c(Cl)cc(CN(Cc2cc(Cl)c(O)c(Cl)c2)C2CCCCC2)cc1Cl: > 100 µM (inactive)
O=S(=O)(/C=C/CS(=O)(=O)c1ccccc1)c1ccccc1: 21.9 µM (inactive)
COc1cc(NS(C)(=O)=O)ccc1NCc1c2ccccc2nc2ccccc12: 34.5 µM (inactive)
COc1ccc(C(C#N)NNc2nc(C)cc(O)n2)cc1OC (stereo not drawn): > 100 µM (inactive)

Need GI50 for each of these compounds.
1. C1=CCN(c2ccccc2)CC1
2. COC(=O)C(=O)C(C(=O)OC)C(=O)C(=O)Nc1ccccc1C(N)=O (stereo not drawn)
3. Nc1ccc(S(=O)(=O)c2ccc(NCN3C(=O)NC(=O)C(=O)C3=O)cc2)cc1
4. C#CCNC(=O)NC(CCCNC(=O)OCc1ccccc1)C(=O)OCc1ccccc1 (stereo not drawn)

> 100 µM (inactive)
> 10 µM (inactive)
> 100 µM (inactive)
46.2 µM (inactive)

Would you mind giving GI50 for every compound in the list below?
1. C=CCOc1ccc(C2(O)c3ccccc3C3=NCCCN32)cc1 (stereo not drawn)
2. COC1=CC(=O)OC(/C=C(C)/C=C/C2=C(C)CCCC2(C)C)C1 (stereo not drawn)
3. COc1ccccc1CC1(O)OC(=O)c2ccccc21 (stereo not drawn)
4. Cc1ccc(NC(=O)/C(Cc2cc(=O)oc3cc(O)ccc23)=N\NC(=O)C[N+](C)(C)C)cc1C
5. Cn1c(=O)nc2n(-c3cccc(Cl)c3)c3ccccc3nc-2c1=O
6. CCOP(=O)(OCC)C(C)(C)OC(=O)NC#N
7. O=C(Nc1ccc(Cl)cc1C(F)(F)F)C(=O)Nn1c(S)nc2ccccc2c1=O
8. O=C1CCCCC1C1(O)C(=O)Nc2cc(F)ccc21 (stereo not drawn)

> 100 µM (inactive)
> 100 µM (inactive)
> 100 µM (inactive)
> 100 µM (inactive)
6.4 µM (inactive)
> 100 µM (inactive)
> 100 µM (inactive)
> 100 µM (inactive)

Lab note: each compound below needs its GI50 filled in.
1. CC(C)(C)C(=O)N1C(C(=O)O)Cc2ccccc2[C@@H]1Cc1ccccc1 (stereo partly drawn)
2. Nc1cccc2cc(S(=O)(=O)Nc3ccc(C(=O)O)cc3)ccc12
3. COC(=O)/C=C1/N=C(N(C)/N=C/c2ccccc2)NC1=O

> 100 µM (inactive)
> 100 µM (inactive)
> 100 µM (inactive)

Reference source: ChEMBL document CHEMBL1201862
